- tested.on: T1, recombinant human GREM1 (hGREM1-His; C-terminal 10His tagged, R&D, #5190-GR) (human, UniProt O60565 25-184)
- T1 construct: range 25-184; also called recombinant human GREM1 with a C-terminal decahistidine tag
- T1 sequence: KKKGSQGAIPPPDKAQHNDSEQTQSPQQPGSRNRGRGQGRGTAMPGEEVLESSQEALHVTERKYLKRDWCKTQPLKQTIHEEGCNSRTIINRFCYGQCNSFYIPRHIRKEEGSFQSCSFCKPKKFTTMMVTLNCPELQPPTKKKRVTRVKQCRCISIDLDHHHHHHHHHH
- protocol.summary: BLI Octet, mAb captured, 100 nM GREM1 + 5 uM heparin;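 also: octet Red96 biolayer interferometry at 25 °C, antibodies captured on anti-human IgG Fc biosensors, pH 7.4 HEPES buffer with 0.1 mg/mL BSA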
Give Binding Signal with 300 sec Association for every item shown.
Hi! Could you send only the number? It should be in nm, unit omitted.

// recorded Binding Signal with 300 sec Association for H4H6243P (antibody, human IgG4, V domains shown, H4H prefix = human IgG4 Fc) VH: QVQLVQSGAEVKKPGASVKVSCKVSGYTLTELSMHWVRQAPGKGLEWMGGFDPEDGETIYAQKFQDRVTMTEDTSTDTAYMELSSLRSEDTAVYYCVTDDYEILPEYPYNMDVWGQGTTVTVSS VL: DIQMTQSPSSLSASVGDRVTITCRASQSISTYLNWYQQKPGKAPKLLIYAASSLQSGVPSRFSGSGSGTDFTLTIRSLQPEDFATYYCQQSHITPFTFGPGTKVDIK : 0.21

// recorded Binding Signal with 300 sec Association for H4H6256P (antibody, human IgG4, V domains shown, H4H prefix = human IgG4 Fc) VH: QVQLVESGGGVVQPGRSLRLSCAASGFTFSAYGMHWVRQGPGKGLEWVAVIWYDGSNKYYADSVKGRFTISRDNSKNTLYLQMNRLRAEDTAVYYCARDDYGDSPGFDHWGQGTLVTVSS VL: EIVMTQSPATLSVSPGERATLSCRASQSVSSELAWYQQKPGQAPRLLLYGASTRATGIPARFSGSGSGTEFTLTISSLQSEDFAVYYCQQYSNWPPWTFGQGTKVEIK : 0.38

// recorded Binding Signal with 300 sec Association for H4H6240P (antibody, human IgG4, V domains shown, H4H prefix = human IgG4 Fc) VH: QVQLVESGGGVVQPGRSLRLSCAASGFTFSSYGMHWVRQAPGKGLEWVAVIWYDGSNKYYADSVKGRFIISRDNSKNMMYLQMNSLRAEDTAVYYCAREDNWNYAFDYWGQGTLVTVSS VL: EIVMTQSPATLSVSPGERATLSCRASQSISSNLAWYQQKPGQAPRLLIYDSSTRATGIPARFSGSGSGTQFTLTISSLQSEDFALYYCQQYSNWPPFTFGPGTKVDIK : 0.37

// recorded Binding Signal with 300 sec Association for H4H6252P (antibody, human IgG4, V domains shown, H4H prefix = human IgG4 Fc; also called H4H6252S) VH: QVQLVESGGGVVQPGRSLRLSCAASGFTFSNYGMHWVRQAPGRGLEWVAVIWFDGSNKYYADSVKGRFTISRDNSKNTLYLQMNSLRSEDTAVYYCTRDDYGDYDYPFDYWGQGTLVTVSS VL: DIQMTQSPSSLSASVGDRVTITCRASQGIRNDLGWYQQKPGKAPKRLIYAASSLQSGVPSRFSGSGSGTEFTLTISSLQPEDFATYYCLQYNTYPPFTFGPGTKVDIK : 0.35

// recorded Binding Signal with 300 sec Association for H4H2783N2 (antibody, human IgG4, V domains shown, H4H prefix = human IgG4 Fc) VH: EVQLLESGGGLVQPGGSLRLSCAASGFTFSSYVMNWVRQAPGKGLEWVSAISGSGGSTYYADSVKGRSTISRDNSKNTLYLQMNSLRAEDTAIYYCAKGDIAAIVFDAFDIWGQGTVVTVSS VL: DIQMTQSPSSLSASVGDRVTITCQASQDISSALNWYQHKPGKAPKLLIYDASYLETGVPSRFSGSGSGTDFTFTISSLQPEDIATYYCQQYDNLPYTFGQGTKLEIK : 0.29
